// provenance: patent US20200102347A1

Catalogue of pKd readings, one per entry.
- testedTarget: T1, NativeRPtag(large)_with_Tags_and_Cys (Thermoanaerobacter tengcongensis)
- T1 construct: Unlabeled in anisotropy assays; coupled through the engineered N-terminal Cys to SulfoLink agarose or maleimide plates in column, pull-down and ELISA assays
- T1 chain: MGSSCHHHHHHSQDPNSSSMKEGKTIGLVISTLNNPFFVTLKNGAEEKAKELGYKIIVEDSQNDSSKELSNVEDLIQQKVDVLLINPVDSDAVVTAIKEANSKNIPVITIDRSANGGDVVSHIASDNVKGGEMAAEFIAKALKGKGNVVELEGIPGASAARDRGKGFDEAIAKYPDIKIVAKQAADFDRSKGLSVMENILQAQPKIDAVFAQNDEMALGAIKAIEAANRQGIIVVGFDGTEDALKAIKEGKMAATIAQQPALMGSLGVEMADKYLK
- testDetails: fluorescence anisotropy; acetone (20%)
No end group written: not given here. *: point of attachment. RhodamineB = CCN(CC)c1ccc2c(-c3ccccc3C(=O)*)c3ccc(=[N+](CC)CC)cc-3oc2c1
Scale: negative log10 of molar concentration, which is what pKd denotes.

INSERT INTO assay_data (binder, reading) VALUES
  ('RhodamineB-GEKIPNFIPAELKLITKENVQ (Synthetic peptide) [native RPtag(small)]', 9.82);

Q. Fill blank: measured pKd of the binder RhodamineB-KIANFIPAELKLITKANVQ (also: also used unlabeled as competitor, Rhodamine labeled in the Kd assays; also called RPtag(small) (tight)) [RPtag(small) Nd2, p5a, e18a] is ____.
A. 10.72
